Numbers sourced from the supplement of paper PMC10307832.

Recorded relative viability for the following compounds
# Tested on: IA-LM
# PROCEDURE DETAILS: relative viability (nuclei count vs DMSO), 5 days (fraction); higher = more cells survive
# CONDITION LABEL: first compound 0.1265 µM

Examples from the recorded data:
COMPOUND	ENDPOINT NAME	VALUE OBSERVED
O=C(O)c1ccc(-c2c[nH]c3ncc(-c4ccccc4)cc23)cc1C1CCCC1 + O=C(c1cc(Cc2n[nH]c(=O)c3ccccc23)ccc1F)N1CCN(C(=O)C2CC2)CC1 [Olaparib] (partner 8 µM)	relative viability	0.758
O=C(O)c1ccc(-c2c[nH]c3ncc(-c4ccccc4)cc23)cc1C1CCCC1 + CC(C)C[C@H](NC(=O)[C@H](Cc1ccccc1)NC(=O)c1cnccn1)B(O)O [Bortezomib] (partner 0.002 µM)	relative viability	0.868
O=C(O)c1ccc(-c2c[nH]c3ncc(-c4ccccc4)cc23)cc1C1CCCC1 + COc1cc2c(Oc3ccc(NC(=O)C4(C(=O)Nc5ccc(F)cc5)CC4)cc3F)ccnc2cc1OCCCN1CCOCC1 [Foretinib] (partner 0.25 µM)	relative viability	1.25

Fill in the recorded relative viability for this compound, with IA-LM as test system: O=C(O)c1ccc(-c2c[nH]c3ncc(-c4ccccc4)cc23)cc1C1CCCC1 + CC1(C)CCC(c2ccc(Cl)cc2)=C(CN2CCN(c3ccc(C(=O)NS(=O)(=O)c4ccc(N[C@H](CCN5CCOCC5)CSc5ccccc5)c(S(=O)(=O)C(F)(F)F)c4)cc3)CC2)C1 [Navitoclax] (partner 0.5 µM)
0.829
